target: Adrenergic receptor alpha-1 (Rattus norvegicus, UniProt P15823+P23944+P43140); test: Ability to bind at Alpha-1 adrenergic receptor by displacing [3H]WB-4101; type: protein assay
For each record, check the reported IC50: if it is below 0.03 µM write True, else write False.

# mol.smiles, answer.label
measured = [
    ("CC1(C)CC(=O)N(CCCCN2CCN(c3nccc4occc34)CC2)C(=O)C1.Cl", "False"),
    ("Cl.O=C1SC2(CCCC2)C(=O)N1CCCCN1CCN(c2nccc3occc23)CC1", "True"),
    ("Cl.O=C1SC2(CCCC2)C(=O)N1CCCCN1CCN(c2nccc3ccsc23)CC1", "False"),
    ("Cc1cc2c(N3CCN(CCCCN4C(=O)SC5(CCCC5)C4=O)CC3)nccc2o1.Cl", "True"),
]

These measurements were taken from ChEMBL document CHEMBL1124475.
